From: patent US11780826B2

Test system: Bovine cardiac myofibrils
protocolDetails: In vitro model of dose-dependent myofibril ATPase modulation (AC1.4, pyruvate kinase/lactate dehydrogenase-coupled ATPase assay at pCa25)
Format: biochemical
cond: concentration at which ATPase activity was 1.4-fold higher than the bottom of the dose curve, mean of a minimum of two independent tests
recordedMetric: AC1.4 (µM)

- compound: "CS(=O)(=O)c1cccc(C(=O)N2C[C@H](F)C[C@@H]2C(=O)N[C@@H](c2ccc(C(F)(F)F)cc2F)C2CC2)c1 [Example 619]"
  AC1.4 / µM: 3.929

[A] O=C(N[C@@H](c1ccc(C(F)(F)F)cc1F)C1COC1)[C@H]1C[C@H]2C[C@H]2N1C(=O)c1ccnc(C(F)(F)F)c1 [Example 392]
[B] Cc1cc(C(=O)N2[C@@H](C(=O)N[C@@H](c3ccc(C(F)(F)F)cc3F)C3COC3)C[C@H]3C[C@H]32)c(NCCO)cn1 [Example 541]
Request: Among A and B , which shows a numerically higher AC1.4 result? Your choice should be expressed through its label.
Result: B
(B: 2.789 µM, A: 1.268 µM)
